Test system: U2OS
measurement notes: Incucyte cell viability with U2OS; further: unitless GR value; below 1 slowed growth and below 0 cell loss
Assay type: toxicity, cell-based
condition summary: human, 0 h, 10 µM, compound concentration 10 uM, replicate number 1
// -1 strictly below -0.6 in Growth Rate; 1 otherwise

{"molecule": "O=C(Nc1cccc(Nc2nccc(Nc3cccc(C(F)(F)F)c3)n2)c1)C1CC1", "assigned class": 1}
{"molecule": "CC#CC(=O)N1CCN(c2nc(-c3ccc(Oc4ccccc4)cc3)c(C(N)=O)s2)CC1", "assigned class": 1}

Req: Kindly determine if Growth Rate recorded for "N#CN1CC[C@@H](C(=O)Nc2nc3c(s2)CN(C(=O)CN=[N+]=[N-])CC3)C1" is above or exactly -0.6.
Resp: -1

Req: Okay, and "CNc1nc(Nc2ccc(C(=O)N3CCOCC3)cc2OC)nc2[nH]cc(Cl)c12" ?
Resp: -1

Req: Okay, and "Cc1cc(Nc2cc(N)ncn2)c(=O)n2c1C(=O)NC21CCCCC1" ?
Resp: 1
